Value source: patent US10526337B2

Listed here are compounds together with their documented IC50.
Target: PI3 Kinase (p120γ) (h) (Homo sapiens, UniProt P48736)
Construct: endogenous in cells
Sequence (P48736 whole entry): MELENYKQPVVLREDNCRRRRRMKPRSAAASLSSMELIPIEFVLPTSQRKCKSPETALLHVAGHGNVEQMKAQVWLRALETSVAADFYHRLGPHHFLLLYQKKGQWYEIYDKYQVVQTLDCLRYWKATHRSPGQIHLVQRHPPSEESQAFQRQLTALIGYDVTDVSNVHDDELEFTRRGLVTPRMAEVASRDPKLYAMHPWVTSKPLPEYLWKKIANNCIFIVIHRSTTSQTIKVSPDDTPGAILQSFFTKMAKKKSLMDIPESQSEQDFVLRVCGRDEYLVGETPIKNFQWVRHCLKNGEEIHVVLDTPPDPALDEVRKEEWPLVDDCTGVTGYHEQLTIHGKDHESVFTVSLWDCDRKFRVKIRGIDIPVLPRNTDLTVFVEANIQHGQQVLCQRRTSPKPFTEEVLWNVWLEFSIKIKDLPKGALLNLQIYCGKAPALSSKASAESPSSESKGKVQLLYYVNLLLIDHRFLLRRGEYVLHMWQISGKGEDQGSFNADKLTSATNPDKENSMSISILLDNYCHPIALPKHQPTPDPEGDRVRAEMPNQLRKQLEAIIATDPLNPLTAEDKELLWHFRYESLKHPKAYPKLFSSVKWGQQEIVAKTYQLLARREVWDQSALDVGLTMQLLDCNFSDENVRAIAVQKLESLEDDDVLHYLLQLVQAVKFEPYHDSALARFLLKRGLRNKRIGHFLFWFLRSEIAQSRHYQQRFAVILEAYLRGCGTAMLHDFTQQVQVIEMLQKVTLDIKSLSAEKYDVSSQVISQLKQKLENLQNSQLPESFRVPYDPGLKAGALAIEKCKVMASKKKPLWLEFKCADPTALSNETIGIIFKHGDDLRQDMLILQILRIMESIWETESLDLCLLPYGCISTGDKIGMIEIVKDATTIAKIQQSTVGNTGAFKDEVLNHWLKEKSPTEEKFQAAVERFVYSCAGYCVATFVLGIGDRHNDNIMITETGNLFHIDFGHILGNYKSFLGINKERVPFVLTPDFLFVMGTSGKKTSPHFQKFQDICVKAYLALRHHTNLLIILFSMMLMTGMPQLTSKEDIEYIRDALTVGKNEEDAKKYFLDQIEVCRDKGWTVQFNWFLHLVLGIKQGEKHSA
Assay: Inhibition of phosphatidylinositol 3-kinase gamma (PI3K γ), pAkt Western blotting in C5a-stimulated RAW264.7 macrophages
Conditions: ATP=10 uM, sample concentration=100 nM
Description: The stimulated cells were transferred in a 1.5 mL tube, followed by centrifugation at 3000 rpm for 1 minute. […] Protein was quantified by BCA (bicinchoninic acid) method and samples were prepared. […] The inhibition of phosphatidylinositol 3 kinase gamma (PI3K γ) by those compounds prepared in Examples 1˜98 was investigated by the following experiment. The inhibition activity of each compound was measured in the following conditions: ATP=10 uM, and sample concentration=100 nM. […]

compound_structure: C[C@H](Nc1ncnc2[nH]cc(Cl)c(=O)c12)c1c(Cl)c2cccc(Cl)c2c(=O)n1-c1ccccc1
target_desc: PI3 Kinase (p120γ) (h) (Homo sapiens, UniProt P48736)
IC50: 10 to 500 nM
//
compound_structure: C[C@H](Nc1ncnc2[nH]ccc(=O)c12)c1nc2ccc(F)cc2c(=O)n1-c1cccc(F)c1
target_desc: PI3 Kinase (p120γ) (h) (Homo sapiens, UniProt P48736)
IC50: 10 to 500 nM
//
compound_structure: C[C@H](Nc1nc(N)nc2[nH]cnc(=O)c12)c1cc2cccc(Cl)c2c(=O)n1-c1ccccc1
target_desc: PI3 Kinase (p120γ) (h) (Homo sapiens, UniProt P48736)
IC50: 10 to 500 nM
//
compound_structure: C[C@H](Nc1ncnc2c1C(=O)N(C1CC1)CN2)c1cc2cccc(Cl)c2c(=O)n1-c1ccccc1
target_desc: PI3 Kinase (p120γ) (h) (Homo sapiens, UniProt P48736)
IC50: > 500 nM
//
compound_structure: C[C@H](Nc1ncnc2[nH]ccc(=O)c12)c1nc2cccc(Cl)c2c(=O)n1-c1cc(F)cc(F)c1
target_desc: PI3 Kinase (p120γ) (h) (Homo sapiens, UniProt P48736)
IC50: 10 to 500 nM
//
compound_structure: Nc1nc(N2CCC[C@H]2c2nn3ccc(Cl)c3c(=O)n2-c2cccc(F)c2)c2c(=O)nc[nH]c2n1
target_desc: PI3 Kinase (p120γ) (h) (Homo sapiens, UniProt P48736)
IC50: > 500 nM
//
compound_structure: CN1CNc2nc(N)nc(N3CCC[C@H]3c3cc4cccc(Cl)c4c(=O)n3-c3ccccc3)c2C1=O
target_desc: PI3 Kinase (p120γ) (h) (Homo sapiens, UniProt P48736)
IC50: > 500 nM
//
compound_structure: C[C@H](Nc1ncnc2[nH]cc(F)c(=O)c12)c1nc2cccc(Cl)c2c(=O)n1-c1ccccc1
target_desc: PI3 Kinase (p120γ) (h) (Homo sapiens, UniProt P48736)
IC50: 10 to 500 nM
//
compound_structure: C[C@H](Nc1ncnc2[nH]cc(Cl)c(=O)c12)c1cc2cccc(Cl)c2c(=O)n1-c1ccccc1
target_desc: PI3 Kinase (p120γ) (h) (Homo sapiens, UniProt P48736)
IC50: 10 to 500 nM
//
compound_structure: Nc1nc(N2CCC[C@H]2c2nc3cccc(Cl)c3c(=O)n2-c2ccccc2)c2c(=O)nc[nH]c2n1
target_desc: PI3 Kinase (p120γ) (h) (Homo sapiens, UniProt P48736)
IC50: > 500 nM
//
compound_structure: C[C@H](Nc1ncnc2[nH]cc(F)c(=O)c12)c1cc2cccc(Cl)c2c(=O)n1-c1ccccc1
target_desc: PI3 Kinase (p120γ) (h) (Homo sapiens, UniProt P48736)
IC50: 10 to 500 nM
//
compound_structure: C[C@H](Nc1ncnc2c1C(=O)N(C)CN2)c1nc2cccc(Cl)c2c(=O)n1-c1cccc(F)c1
target_desc: PI3 Kinase (p120γ) (h) (Homo sapiens, UniProt P48736)
IC50: 10 to 500 nM
//
compound_structure: C[C@H](Nc1nc(N)nc2c1C(=O)N(C)CN2)c1nc2cccc(Cl)c2c(=O)n1-c1cccnc1
target_desc: PI3 Kinase (p120γ) (h) (Homo sapiens, UniProt P48736)
IC50: 10 to 500 nM
//
compound_structure: C[C@H](Nc1nc(N)nc2c1C(=O)N(C)CN2)c1nc2cccc(Cl)c2c(=O)n1-c1cccc(F)c1
target_desc: PI3 Kinase (p120γ) (h) (Homo sapiens, UniProt P48736)
IC50: 10 to 500 nM
//
compound_structure: C[C@H](Nc1nc(N)nc2[nH]cnc(=O)c12)c1nn2ccc(Cl)c2c(=O)n1-c1cccc(F)c1
target_desc: PI3 Kinase (p120γ) (h) (Homo sapiens, UniProt P48736)
IC50: 10 to 500 nM
